EXPERIMENTAL_SYSTEM: GDP-bound KRAS protein (aa 1-169), containing both G12C and C118A amino acid substitutions (Homo sapiens, UniProt P01116, C118A/G12C)
Sequence (P01116 1-169 isoform P01116-2 G12C/C118A): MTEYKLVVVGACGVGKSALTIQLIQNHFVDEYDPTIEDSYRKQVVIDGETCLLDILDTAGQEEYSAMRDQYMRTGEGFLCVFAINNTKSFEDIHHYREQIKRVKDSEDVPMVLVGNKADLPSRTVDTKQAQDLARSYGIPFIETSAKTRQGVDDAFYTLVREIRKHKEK
METHOD: Coupled nucleotide exchange assay (SOS-mediated, AlphaScreen)
Type: biochemical
CONDITION_INFO: 5 min compound pre-incubation
ENDPOINT_LABEL: Coupled exchange IC50 (5 min)

Given item C=CC(=O)N1CCN(c2nc(=O)n(-c3c(CC)cccc3CC)c3nc(N4CCC[C@@H]4C#N)c(Cl)cc23)[C@@H](C)C1 [Example 66-23] , the value recorded as its Coupled exchange IC50 (5 min) is 160 | nda μM

Note to self: Coupled exchange IC50 (5 min) recorded for C=CC(=O)N1CCN(c2nc(=O)n(-c3ccccc3C(C)C)c3nc(-c4cc(OC)ccc4Br)c(Cl)cc23)[C@@H](C)C1 [Example 60-26] was 0.809 | nda μM

Lookup result for C=CC(=O)N1CCN(c2nc(=O)n(-c3c(C)ccnc3C(C)C)c3nc(-c4c(O)cccc4F)c(C)cc23)[C@@H](C)C1 [Example 74-3] ; measured Coupled exchange IC50 (5 min): 0.136 | nda μM

Note to self: Coupled exchange IC50 (5 min) recorded for C=CC(=O)N1CCN(c2nc(=O)n(-c3c(C(F)(F)F)ccnc3C(C)C)c3nc(-c4c(O)cccc4F)c(F)cc23)[C@@H](C)C1 [Example 58-3] was 0.261 | nda μM

GET /value?item= C=CC(=O)N1CCN(c2nc(=O)n(-c3ccccc3C(C)C)c3nc(N4CCCCC4C)c(Cl)cc23)[C@@H](C)C1 (stereo partly drawn) [Example 69-5] &field=Coupled exchange IC50 (5 min) returns 5.64 | nda μM

Value of Coupled exchange IC50 (5 min) reported for the compound C=CC(=O)N1CCN(c2nc(=O)n(-c3ccccc3C(C)O)c3nc(-c4c(O)cccc4F)c(Cl)cc23)[C@@H](C)C1 (stereo partly drawn) [Example 60-27] is 1.3 | nda μM
